Provenance of the data: paper PMC12207590

- target desc: MATE2K (Homo sapiens)
- Sequence (Q86VL8 1-566 isoform Q86VL8-3): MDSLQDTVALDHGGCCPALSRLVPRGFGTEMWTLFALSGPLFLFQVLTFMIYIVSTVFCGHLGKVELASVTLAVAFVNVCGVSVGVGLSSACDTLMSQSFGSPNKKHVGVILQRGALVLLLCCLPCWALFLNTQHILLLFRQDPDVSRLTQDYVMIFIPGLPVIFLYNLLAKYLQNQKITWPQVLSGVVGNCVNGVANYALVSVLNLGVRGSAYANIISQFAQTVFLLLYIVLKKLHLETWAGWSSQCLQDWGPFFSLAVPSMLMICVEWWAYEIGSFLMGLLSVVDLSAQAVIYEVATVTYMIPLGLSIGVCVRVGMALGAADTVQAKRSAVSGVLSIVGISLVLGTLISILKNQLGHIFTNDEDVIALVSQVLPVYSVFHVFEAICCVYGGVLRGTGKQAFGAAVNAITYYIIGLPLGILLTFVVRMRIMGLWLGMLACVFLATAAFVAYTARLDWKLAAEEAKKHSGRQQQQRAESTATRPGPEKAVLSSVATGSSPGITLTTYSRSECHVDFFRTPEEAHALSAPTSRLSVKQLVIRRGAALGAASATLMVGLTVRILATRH
- assay method text: Uptake ratio in MATE2K-overexpressing HEK293 cells vs empty vector (2.5 μM, 1 min, HPLC-MS/MS)
- Type: cell-based
- assay setup: uptake ratio MATE2K-overexpressing vs empty-vector HEK293 cells, 2.5 μM, 1 min; mean
Class 1: MATE2 at least 1. Class -1: MATE2 below 1.

Examples from the recorded data:
>>> assigned_class("O=C1Cc2cc(CCN3CCN(c4nsc5ccccc45)CC3)c(Cl)cc2N1 [Ziprasidone]")
1
>>> assigned_class("C[C@@H]1CCN(C(=O)CC#N)C[C@@H]1N(C)c1ncnc2[nH]ccc12 [Tofacitinib]")
1
>>> assigned_class("CC(C)NCC(O)c1ccc(NS(C)(=O)=O)cc1 (centres unmarked) [Sotalol]")
1
>>> assigned_class("COc1ccccc1OCC(O)CN1CCN(CC(=O)Nc2c(C)cccc2C)CC1 (centres unmarked) [Ranolazine]")
1

In: Threshold query (MATE2 >= 1) on CO[C@H]1/C=C/O[C@@]2(C)Oc3c(C)c(O)c4c(O)c(c(/C=N/N5CCN(C)CC5)c(O)c4c3C2=O)NC(=O)/C(C)=C\C=C\[C@H](C)[C@H](O)[C@@H](C)[C@@H](O)[C@@H](C)[C@H](OC(C)=O)[C@@H]1C [Rifampicin]
Out: -1

In: Threshold query (MATE2 >= 1) on O=C(NCCNCC(O)COc1ccc(O)cc1)N1CCOCC1 (centres unmarked) [Xamoterol]
Out: 1

In: Threshold query (MATE2 >= 1) on O=C(c1ccc(OCCN2CCCCC2)cc1)c1c(-c2ccc(O)cc2)sc2cc(O)ccc12 [Raloxifene]
Out: 1

In: Threshold query (MATE2 >= 1) on CC(C)(C)c1ccc(C(O)CCCN2CCC(C(O)(c3ccccc3)c3ccccc3)CC2)cc1 (centres unmarked) [Terfenadine]
Out: -1

In: Threshold query (MATE2 >= 1) on NCCCCNCCCN [Spermidine]
Out: -1

In: Threshold query (MATE2 >= 1) on CCN1CCC[C@H]1CNC(=O)c1c(OC)ccc(Br)c1OC [Remoxipride]
Out: 1

In: Threshold query (MATE2 >= 1) on CN(C)CCc1c[nH]c2ccc(Cn3cncn3)cc12 [Rizatriptan]
Out: 1

* * *

Measured MATE2K ratio, listed per entry.
- target desc: MATE2K (Homo sapiens)
- assay method text: Uptake ratio in MATE2K-overexpressing HEK293 cells vs empty vector (2.5 μM, 1 min, HPLC-MS/MS)
- Type: cell-based
- assay setup: fold uptake over empty vector, 2.5 μM, 1 min
Could you keep your reply to the number by itself?

>>> recorded_value("CC(C)NCC(O)COc1cccc2[nH]ccc12 (stereo not shown)")
1.18
>>> recorded_value("C#CCN[C@@H]1CCc2ccccc21 [Rasagiline (S), Rasagiline]")
1.46
>>> recorded_value("CCCNC(C)C(=O)Nc1c(C)csc1C(=O)OC (stereo not shown)")
1.59

In: MATE2K ratio for C[N+]1(C)CCC[C@H]1C(=O)[O-] [Stachydrine] ?
Out: 1.31

In: MATE2K ratio for NCCCCNCCCN ?
Out: 0.55

In: MATE2K ratio for O=C(NCC1CCCCN1)c1cc(OCC(F)(F)F)ccc1OCC(F)(F)F (stereo not shown) [Flecainide] ?
Out: 1.19

In: MATE2K ratio for OC(CCN1CCCCC1)(c1ccccc1)C1CC2C=CC1C2 (stereo not shown) ?
Out: 1.15

In: MATE2K ratio for CC[N+](CC)(CC)Cc1ccccc1 ?
Out: 4.52

In: MATE2K ratio for Cc1ncc(CO)c(CN)c1O ?
Out: 1.36

In: MATE2K ratio for COC(=O)CCc1ccc(OCC(O)CNC(C)C)cc1 (stereo not shown) ?
Out: 1.23

In: MATE2K ratio for COc1cc2c(cc1OC)CC(=O)N(CCCN(C)C[C@H]1Cc3cc(OC)c(OC)cc31)CC2 ?
Out: 1.23
